molecular target: Organic anion transporter 3 (Homo sapiens, UniProt Q8TCC7); assay: TP_TRANSPORTER: inhibition of E1S uptake in OAT3 expressing oocytes
Sequence (Q8TCC7 whole entry): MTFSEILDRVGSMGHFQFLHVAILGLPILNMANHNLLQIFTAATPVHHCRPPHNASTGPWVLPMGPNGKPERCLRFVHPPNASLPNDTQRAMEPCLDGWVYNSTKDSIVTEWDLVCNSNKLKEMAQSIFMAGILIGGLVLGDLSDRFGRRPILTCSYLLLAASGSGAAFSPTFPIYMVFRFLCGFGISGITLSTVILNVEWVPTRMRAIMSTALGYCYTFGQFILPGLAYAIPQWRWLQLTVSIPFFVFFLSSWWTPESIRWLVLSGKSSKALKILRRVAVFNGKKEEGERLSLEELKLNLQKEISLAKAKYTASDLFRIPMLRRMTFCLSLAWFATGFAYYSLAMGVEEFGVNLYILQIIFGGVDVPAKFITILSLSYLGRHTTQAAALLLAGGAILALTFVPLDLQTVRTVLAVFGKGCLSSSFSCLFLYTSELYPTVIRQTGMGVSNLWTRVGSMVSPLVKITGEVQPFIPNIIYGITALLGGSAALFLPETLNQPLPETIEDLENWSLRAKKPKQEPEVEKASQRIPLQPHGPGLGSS
pKi: −log10 of the molar value.

| COMPOUND_STRUCTURE_STRING | pKi |
| --- | --- |
| NC(N)=Nc1nc(CSCCC(N)=NS(N)(=O)=O)cs1 | 3.52 |
| CN/C(=N/CCSCc1nc[nH]c1C)NC#N | 4.28 |

* * *

Reported Ki by item:
Molecular target: Solute carrier family 22 member 2 (Homo sapiens)
Sequence (O15244 whole entry): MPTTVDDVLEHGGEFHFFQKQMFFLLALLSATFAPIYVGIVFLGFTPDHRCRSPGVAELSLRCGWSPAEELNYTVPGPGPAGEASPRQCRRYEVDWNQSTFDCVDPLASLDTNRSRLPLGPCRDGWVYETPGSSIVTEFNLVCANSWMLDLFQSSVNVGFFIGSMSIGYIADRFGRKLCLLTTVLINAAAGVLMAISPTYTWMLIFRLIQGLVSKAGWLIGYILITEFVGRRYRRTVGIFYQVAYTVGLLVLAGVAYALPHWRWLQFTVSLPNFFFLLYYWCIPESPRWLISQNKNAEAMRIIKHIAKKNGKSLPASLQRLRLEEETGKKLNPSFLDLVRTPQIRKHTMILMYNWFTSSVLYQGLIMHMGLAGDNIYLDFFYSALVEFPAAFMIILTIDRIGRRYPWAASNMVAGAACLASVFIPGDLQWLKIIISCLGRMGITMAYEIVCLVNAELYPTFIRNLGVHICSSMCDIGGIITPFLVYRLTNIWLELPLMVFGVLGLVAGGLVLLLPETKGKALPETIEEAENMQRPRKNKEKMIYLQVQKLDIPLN
Experiment: TP_TRANSPORTER: inhibition of TEA uptake in OCT2 expressing oocytes

| MOLECULE | Ki (µM) |
| --- | --- |
| CN/C(=N/CCSCc1nc[nH]c1C)NC#N [CIMETIDINE] | 57 |
| NC(N)=Nc1nc(CSCCC(N)=NS(N)(=O)=O)cs1 [FAMOTIDINE] | 1800 |

// data source = ChEMBL document CHEMBL2074288
